Measured values drawn from PubChem BioAssay (NCI) for this set.

Test system: HCC-2998 colon
Experiment: NCI tumour cell line growth inhibition, 48 h
Reported TGI values are given for each entry in this list.

Below: 3 compounds and their reported TGI.
COC1CC(N)(c2ccccc2)C(O)C(C)O1 (centres undefined) | > 100 µM
Cn1nc2ccc([N+](=O)[O-])c(Cn3nnc4ccccc43)c2n1 | > 100 µM
CNC(=S)Nc1ccc(OC)c2ccccc12 | > 10 µM

# input for lookup
Sample CCOC(=O)c1c(C)n(Cc2ccc(Cl)cc2Cl)c2c1cc(O)c1[nH]c3c(c12)CCCC3 — what was its TGI?
63 µM

----------
Tested on: BT-549 breast
Assay: NCI tumour cell line growth inhibition, 48 h
Reported TGI values are given for each entry in this list.

Below: 5 compounds and their reported TGI.
c1ccc(C2ONC3=NCCN32)cc1 (stereo not drawn) | > 100 µM
C=CCn1c(=O)c(C)cn(COCCO)c1=O | > 100 µM
CC(C)(C)c1ccc(OCCOc2ccc(C(C)(C)C)cc2N)c(N)c1 | > 100 µM
CC(CO)Nc1cc(-c2[nH]c3cccnc3c2-c2ccc(F)cc2)ccn1 (stereo not drawn) | > 25 µM
CCC1(O)C(=O)OCc2c1cc1n(c2=O)Cc2cc3ccccc3nc2-1 (stereo not drawn) | > 41.4 µM

Sample CC(C)(C)c1ccccc1N1C(=O)c2ccc3c4c(ccc(c24)C1=O)N(c1ccccc1C(C)(C)C)C3=O — what was its TGI?
> 100 µM

Sample COc1cc(/C=C2\C(=O)N(c3cccc([N+](=O)[O-])c3)C(c3ccccc3)S2(=O)=O)cc(OC)c1OC (stereo not drawn) — what was its TGI?
> 100 µM

Sample CCOC(=O)c1ccc(-n2[nH]nc(C(N)=O)c2=O)cc1 — what was its TGI?
> 100 µM
